Source: patent US20230331827A1

# test_target: human cMET (human, UniProt P08581 25-932)
# Sequence (P08581 25-932 limits assumed): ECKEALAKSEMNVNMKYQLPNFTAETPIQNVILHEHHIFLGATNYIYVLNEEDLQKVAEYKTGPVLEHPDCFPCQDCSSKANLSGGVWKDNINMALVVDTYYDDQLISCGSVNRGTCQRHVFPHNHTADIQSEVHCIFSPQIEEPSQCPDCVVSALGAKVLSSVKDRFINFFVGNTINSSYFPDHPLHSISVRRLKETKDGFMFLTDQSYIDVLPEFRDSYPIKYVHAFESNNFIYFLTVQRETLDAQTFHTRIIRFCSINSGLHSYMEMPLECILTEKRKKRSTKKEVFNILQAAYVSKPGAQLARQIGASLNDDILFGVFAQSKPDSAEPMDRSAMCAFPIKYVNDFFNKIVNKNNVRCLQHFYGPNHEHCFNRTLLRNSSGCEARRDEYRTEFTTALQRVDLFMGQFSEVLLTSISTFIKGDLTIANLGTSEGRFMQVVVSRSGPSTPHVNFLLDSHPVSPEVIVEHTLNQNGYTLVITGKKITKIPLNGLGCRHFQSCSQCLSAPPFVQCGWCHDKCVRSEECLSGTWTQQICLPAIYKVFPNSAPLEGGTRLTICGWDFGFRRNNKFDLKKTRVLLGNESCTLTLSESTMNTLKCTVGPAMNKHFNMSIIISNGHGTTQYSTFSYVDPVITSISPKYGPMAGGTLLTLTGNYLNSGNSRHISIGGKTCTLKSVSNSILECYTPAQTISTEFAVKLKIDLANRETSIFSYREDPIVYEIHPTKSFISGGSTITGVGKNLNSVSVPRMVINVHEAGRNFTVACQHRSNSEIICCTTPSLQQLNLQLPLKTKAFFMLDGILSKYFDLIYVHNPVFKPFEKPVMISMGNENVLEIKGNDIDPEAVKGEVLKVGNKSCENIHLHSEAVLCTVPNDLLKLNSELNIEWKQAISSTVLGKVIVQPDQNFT
# protocol: phage TRF on cMET
reported_metric: TRF signal
Note: the reply should be a number with no unit written.

Example entries and their recorded answers appear below.
INSERT INTO results (binder, measured_result) VALUES
  ('KB_A12_cMET_E05 (scFv, V domains shown) VH: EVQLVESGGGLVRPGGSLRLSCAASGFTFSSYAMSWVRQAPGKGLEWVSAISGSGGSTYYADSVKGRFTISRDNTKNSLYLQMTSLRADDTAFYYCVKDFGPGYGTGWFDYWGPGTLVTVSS VL: AVNWYQQLPGKAPKLLIYAAGRCDRKAGTGRCKQDSDCLAGCVCGPNGFCGANSGVSDRFSAAKSGTSASLAINGLRSEDEADYYCAAWDDSLNGYVFGTGTKLTVLG', 116000),
  ('KB_A12_cMET_H05 (scFv, V domains shown) VH: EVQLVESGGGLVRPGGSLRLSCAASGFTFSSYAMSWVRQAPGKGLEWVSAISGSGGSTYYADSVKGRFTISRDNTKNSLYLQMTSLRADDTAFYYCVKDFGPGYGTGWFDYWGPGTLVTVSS VL: AVNWYQQLPGKAPKLLIYAAGRCNRASGAGRCKQDSDCLAGCVCGPNGFCGANSGVSDRFSAAKSGTSASLAINGLRSEDEADYYCAAWDDSLNGYVFGTGTKLTVLG', 153000);

Shifting focus to the binder that follows.
Data request: Could you please provide reported TRF signal for KB_A12_cMET_G08 (scFv, V domains shown) VH: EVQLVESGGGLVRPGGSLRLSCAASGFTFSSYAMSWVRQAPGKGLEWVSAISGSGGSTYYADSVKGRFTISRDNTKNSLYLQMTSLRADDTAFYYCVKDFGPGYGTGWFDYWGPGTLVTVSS VL: AVNWYQQLPGKAPKLLIYAAGRCARLSGSGRCKQDSDCLAGCVCGPNGFCGANSGVSDRFSAAKSGTSASLAINGLRSEDEADYYCAAWDDSLNGYVFGTGTKLTVLG ? Thanks!
Data returned: 27900
